Assign CC50 at 72 h to each entry below.
Assay: Cytotoxicity against human C8166 cells after 3 days by MTT assay
Type: cell-based
Numbers only, in µM.

CC(C)(C)c1ccc(OCCCN)c([N+](=O)[O-])c1 : 30.1
NCCCNc1ccc(O)cc1[N+](=O)[O-] : 53.7
NCCCNc1ccc(CN)cc1[N+](=O)[O-] : 17.7
COc1ccc(OCCCN)c([N+](=O)[O-])c1 : 6.09

Batch: CC50 at 72 h for all items listed.
1. Cc1ccc([N+](=O)[O-])c(NCCCN)c1
2. CC(N)c1ccc(NCCCN)c([N+](=O)[O-])c1 (stereo not drawn)
3. NCCCNc1ccc([N+](=O)[O-])cc1

Found:
1: 20.7; 2: 12.9; 3: 131
